System: Escherichia coli TOP10
Experiment: shrunken log2 fold change of peptide-encoding DNA abundance (4.5 h post-induction vs induction); higher = less antimicrobial activity (less host growth inhibition)
Conditions: time post-induction: 4.5 h; library: site-saturation at positions 5, 18, 19, 20
Metric: shrunken log2 fold change
Give bare numbers.

[
  {
    "Construct sequence": "RRIRSRPPRLPRPRPRPIQMPRP",
    "shrunken log2 fold change": -0.103
  }
]

For each of the sequences below, note its shrunken log2 fold change.
1. RRIRYRPPRLPRPRPRPPLGPRP
2. RRIRTRPPRLPRPRPRPMPVPRP
3. RRIRDRPPRLPRPRPRPEMNPRP
4. RRIRMRPPRLPRPRPRPSANPRP
5. RRIRIRPPRLPRPRPRPDLRPRP
6. RRIRWRPPRLPRPRPRPCAEPRP
7. RRIRGRPPRLPRPRPRPAYNPRP
8. RRIRVRPPRLPRPRPRPRPMPRP

Output:
[-0.258, 0.0572, 0.128, 2.44, -0.0147, 0.618, -0.34, 0.445]

For each of the sequences below, note its shrunken log2 fold change.
1. RRIRERPPRLPRPRPRPDNFPRP
2. RRIRPRPPRLPRPRPRPPMMPRP
3. RRIRIRPPRLPRPRPRPYAGPRP
4. RRIRHRPPRLPRPRPRPKMQPRP
5. RRIRRRPPRLPRPRPRPHQYPRP
6. RRIRNRPPRLPRPRPRPFQLPRP
7. RRIRCRPPRLPRPRPRPPCFPRP

Output:
1. 0.00707
2. 0.0805
3. -0.417
4. -0.121
5. 2.56
6. -0.228
7. 0.197

For each of the sequences below, note its shrunken log2 fold change.
1. RRIRGRPPRLPRPRPRPYHMPRP
2. RRIRNRPPRLPRPRPRPKNAPRP

Output:
[-0.345, -0.0561]

For each of the sequences below, note its shrunken log2 fold change.
1. RRIRNRPPRLPRPRPRPKISPRP
2. RRIRMRPPRLPRPRPRPKTPPRP

Output:
1. -0.484
2. 3.35

For each of the sequences below, note its shrunken log2 fold change.
1. RRIRFRPPRLPRPRPRPVGFPRP
2. RRIRYRPPRLPRPRPRPIWTPRP
3. RRIRHRPPRLPRPRPRPEGAPRP

Output:
-0.0508
0.066
0.686

For each of the sequences below, note its shrunken log2 fold change.
1. RRIRKRPPRLPRPRPRPNPDPRP
2. RRIRYRPPRLPRPRPRPWIFPRP
3. RRIRHRPPRLPRPRPRPNHSPRP
4. RRIRWRPPRLPRPRPRPCFSPRP

Output:
[0.383, -0.505, -0.785, -0.176]

For each of the sequences below, note its shrunken log2 fold change.
1. RRIRCRPPRLPRPRPRPSSLPRP
2. RRIRFRPPRLPRPRPRPEDPPRP
3. RRIRWRPPRLPRPRPRPETHPRP
4. RRIRKRPPRLPRPRPRPEEVPRP

Output:
[-0.555, 0.379, 0.756, 2.83]

Input: State, in one line, measured shrunken log2 fold change of RRIRNRPPRLPRPRPRPIQGPRP
Output: -0.105

###

Test system: Escherichia coli TOP10;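 further: peptides expressed intracellularly from a pBAD plasmid library in pooled LB shake-flask culture, induced with 0.3% L-arabinose, DNA abundance read by NGS, three biological replicates, DESeq2 with apeglm shrinkage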
Assay: shrunken log2 fold change of peptide-encoding DNA abundance (4.5 h post-induction vs induction); higher = less antimicrobial activity (less host growth inhibition)
Conditions: time post-induction: 4.5 h; library: site-saturation at positions 5, 18, 19, 20
Outcome: 1.0 for shrunken log2 fold change of at least -0.2; 0.0 for anything lower.

[
  {
    "Construct sequence": "RRIRVRPPRLPRPRPRPFCSPRP",
    "Assigned label": 1.0
  },
  {
    "Construct sequence": "RRIRGRPPRLPRPRPRPKMHPRP",
    "Assigned label": 1.0
  }
]

Input: Is shrunken log2 fold change for RRIRCRPPRLPRPRPRPYRYPRP at or above -0.2?
Output: 0.0

Input: Is shrunken log2 fold change for RRIRQRPPRLPRPRPRPAAHPRP at or above -0.2?
Output: 1.0

Input: Is shrunken log2 fold change for RRIRWRPPRLPRPRPRPQWKPRP at or above -0.2?
Output: 1.0

Input: Is shrunken log2 fold change for RRIRGRPPRLPRPRPRPFYEPRP at or above -0.2?
Output: 1.0

Input: Is shrunken log2 fold change for RRIRERPPRLPRPRPRPITNPRP at or above -0.2?
Output: 0.0

Input: Is shrunken log2 fold change for RRIRHRPPRLPRPRPRPSIDPRP at or above -0.2?
Output: 0.0
